Target System: HIV-1 protease (Human immunodeficiency virus type 1 group M subtype B)
Construct: The protease (or proteinase) enzyme, consisting of only 99 amino acids
Experiment Summary: In vitro HIV protease inhibitory assay (fluorescently labeled substrate, avidin-polystyrene particles)
Assay type: biochemical
Conditions Used: test compound concentration 30.0 μM
Measured Attribute: HIV-1 Protease % Inhibition (%)
Numbers only here, please. The scale is %.

Task item: API: value(readout= HIV-1 Protease % Inhibition, system= HIV-1 protease (Human immunodeficiency virus type 1 group M subtype B), query= O=C1OC2(CCCCC2Cc2ccccc2)C(O)=C1C(c1ccccc1)C1CC1 (stereo not shown) [IX-7] )
Reply: 95.76

Task item: Same again, this time with CCCC1(CCC)OC(=O)C(C(c2cccc(N)c2)C2CC2)=C1O (stereo not shown) [IX-12]
Reply: 120.48

Task item: Same again, this time with CCCC1(CCC)OC(=O)C(C(c2cccc(NS(=O)(=O)c3ccc(C#N)c(C4CCCC4)c3)c2)C2CCCC2)=C1O (stereo not shown) [IX-49]
Reply: 78.56

Task item: Same again, this time with O=C1OC2(CCCCC2CCc2ccccc2)C(O)=C1C(c1ccccc1)C1CC1 (stereo not shown) [IX-5]
Reply: 92.9
